Assay: anti-His antibody binders, primary screen, artefact control for SMM control protein annotation, biochemical, small-molecule microarray, 635 nm fluorescence (AID 1128);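 note: score merges feature fluorescence with signal-to-noise for each printed compound spot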
Details: anti-His Alexa647 antibody binding, higher = more signal
So I've got a bunch of compounds here, and I need their composite z-score values.
A bare number is all that is needed in reply.

*Q* So what does the record say about composite z-score for COc1cc(Cc2cc3c(c(CCc4ccccc4)n2)[Si](C(C)C)(C(C)C)O[C@H]3c2ccccc2)cc(OC)c1OC ?
*A* -0.133

*Q* What do you get for CC1C2C(CCCO)=CC(C3C(=O)N(C)C(=O)C23)N1Cc1cccc(OC(F)(F)F)c1 (centres undefined) ?
*A* 0.503

*Q* Next entry: C=CC[C@H](O)c1ccc(O)c(F)c1
*A* -0.234

*Q* Record: CC(C)N1CC=CC23O[C@@H]4/C=C\CCCOC(=O)C4[C@H]2C(=O)N(C(C)CO)[C@@H]3C1=O (some centres undefined)
*A* -0.201

*Q* Can you handle COC(=O)C(CC#Cc1ccc2c(c1)[C@]1(C(=O)N2)[C@H](C(=O)N2CCN(c3ncccn3)CC2)[C@H]2C(=O)O[C@H](c3ccccc3)[C@H](c3ccccc3)N2[C@@H]1c1ccc(O)cc1)C(=O)OC next?
*A* 1.19

*Q* Next: COc1cccc(C)c1NC(=O)O[C@H]1[C@H](OC(=O)Nc2ccccc2-c2ccccc2)[C@@H](OC(=O)Nc2ccccc2-c2ccccc2)[C@@H](OC)O[C@@H]1CO
*A* 1

*Q* // query: CC(C)c1ccc(NN2C(C(O)C3=C[C@H]4C[C@@H](C3)C4(C)C)C=CC3C(=O)N(c4ccccc4)C(=O)C32)cc1 (some centres undefined)
*A* 0.57

*Q* And for C=CCNC(=O)[C@@H]1[C@H]2C(=O)O[C@H](c3ccccc3)[C@H](c3ccccc3)N2[C@H](c2ccc(OCCO)cc2)[C@@]12C(=O)Nc1ccc(C#CC3=CCCCC3)cc12 ?
*A* 1.15

*Q* Field entry: [N-]=[N+]=Nc1ccccc1C[C@@]1(C(=O)NCC(O)CO)N=C(c2ccc(OCCCO)cc2)O[C@@H]1c1ccccc1N=[N+]=[N-] (some centres undefined)
*A* 1.85

*Q* Same read-out for CCOC(=O)C[C@H]1[C@H](OC(=O)Cc2ccc3c(c2)OCO3)[C@@H](NC(=O)CC(C)C)c2cc(OCCCO)ccc2N1C(=O)c1ccc2ccccc2n1 ?
*A* 0.212

*Q* Consider next the compound CCOC(=O)C[C@H]1[C@H](OC(=O)c2cc3ccccc3oc2=O)[C@@H](NC(=O)Cc2ccc(OC)cc2)c2cc(OCCCO)ccc2N1C(=O)Cc1ccc(OC)cc1 in the same way.
*A* -0.279

*Q* Now try C=CC[C@@]1(C(=O)NCCCOC)N=C(c2ccc(OCCCO)cc2)O[C@@H]1c1ccccc1CN=[N+]=[N-] .
*A* 2.86

*Q* Input C=C(COC)/C(=C/C[C@@H](OC(=O)c1ccncc1)c1ccccc1OCCO)c1cnc2ccccc2c1
*A* 1.27

*Q* Same lookup for Cc1ccc(S(=O)(=O)N2[C@@H](c3ccccc3)C(C(=O)O)=CC[C@H]2c2ccc(F)cc2)cc1 , please.
*A* 0.686

* * *

Provide the recorded composite z-score for the entries that follow.
Target: Carbonic anhydrase 2 (Homo sapiens)
Test: CAII small-molecule binders, profiling panel, biochemical, small-molecule microarray, Alexa647-labelled CAII (AID 1122)
Settings: CAII-A647 binding fluorescence, higher = more signal
Answer field: number only, no words.

*Q* Give its composite z-score value. Item: CCOC(=O)C[C@H]1[C@H](OC(=O)c2ccccc2-c2ccccc2)[C@@H](NC(=O)CC(C)C)c2cc(OCCCO)ccc2N1C(=O)c1ccccc1
*A* 0.742

*Q* Follow-up entry: COc1ccc(CCNC(=O)[C@@H]2c3ccccc3C(=O)N(Cc3cc(F)cc(C(F)(F)F)c3)[C@H]2c2ccc(CO)cc2)cc1
*A* 0.753

*Q* Do the same for O=C1OC[C@@H](c2ccccc2)n2cc(/C=C/c3ccccc3)cc21 please
*A* 0.43

*Q* // repeat for C=C(C(=O)CC[C@H](OC(=O)c1ccccc1-c1ccccc1C(=O)O)c1ccc(OCCO)cc1)C(C)C and report
*A* 0.59

*Q* What about this compound? C=CC[C@]1(C(N)=O)N=C(c2ccc(OCCCO)cc2)O[C@H]1c1ccccc1N=[N+]=[N-]
*A* 0.79

*Q* Please do the same for O=C1O[C@H](c2ccccc2)[C@H](c2ccccc2)N2[C@H]1[C@@H](C(=O)O)[C@]1(C(=O)Nc3ccc(C#CC4(O)CCCCCC4)cc31)[C@H]2c1ccccc1OCCO as well.
*A* 0.487

*Q* And the next one, C=CCNC(=O)[C@H]1[C@@H]2C(=O)O[C@@H](c3ccccc3)[C@@H](c3ccccc3)N2[C@@H](c2ccc(O)cc2)[C@]12C(=O)Nc1ccccc12 ?
*A* 0.331
